Molecular target: T1, human TREM2 (human) (UniProt Q9NZC2)
T1 sequence (looked up): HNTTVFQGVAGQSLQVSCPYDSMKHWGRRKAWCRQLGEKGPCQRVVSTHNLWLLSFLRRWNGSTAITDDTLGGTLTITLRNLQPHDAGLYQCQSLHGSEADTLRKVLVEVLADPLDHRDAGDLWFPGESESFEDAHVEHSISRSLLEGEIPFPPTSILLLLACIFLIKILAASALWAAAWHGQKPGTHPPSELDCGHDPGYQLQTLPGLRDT
Experiment: 1st screen, 110 nM Ab
metric-name: Binding Signal (fold over 6E7 parental antibody)

binder	data-value
6E7 variant V31 (antibody, V domains shown) VH: EVQLVQSGAEVKKPGESLKISCKGSGYSFTSYWIAWVRQMPGKGLEWMGIIYPGDSETRYSPSFQGQVTISADKSISTAYLQWSSLKASDTAMYFCARQRTFYYDSSDYFDYWGQGTLVTVSS VL: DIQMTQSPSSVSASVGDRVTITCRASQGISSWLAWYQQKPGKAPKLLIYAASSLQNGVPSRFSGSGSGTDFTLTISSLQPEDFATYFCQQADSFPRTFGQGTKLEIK	0.61 fold
6E7 variant V92 (antibody, V domains shown) VH: EVQLVQSGAEVKKPGESLKISCKGSGYSFTSYWIAWVRQMPGKGLEWMGIIYPGDSDTRYSPSFQGQVTISADKSISTAYLQWSSLKASDTAMYFCARQRTFHYDSSDYFDYWGQGTLVTVSS VL: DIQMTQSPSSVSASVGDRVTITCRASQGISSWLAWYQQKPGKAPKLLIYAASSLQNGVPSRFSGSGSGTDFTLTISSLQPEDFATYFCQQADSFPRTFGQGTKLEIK	0.22 fold
6E7 variant V11 (antibody, V domains shown) VH: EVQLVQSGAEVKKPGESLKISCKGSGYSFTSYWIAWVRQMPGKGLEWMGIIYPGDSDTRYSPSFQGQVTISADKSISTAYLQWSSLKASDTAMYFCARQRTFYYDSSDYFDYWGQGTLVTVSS VL: DIQMTQSPSSVSASVGDRVTITCRASQGISSWLAWYQQKPGKAPKLLIYAASSLQNGVPSRFSGSGSGTDFTLTISSLQPEDFATYFCQQAASFPRTFGQGTKLEIK	0.79 fold

As a next step, examine the binder that follows.
Return the recorded Binding Signal (fold over 6E7 parental antibody) value; entry: 6E7 variant V6 (antibody, V domains shown) VH: EVQLVQSGAEVKKPGESLKISCKGSGYSFTSMWIAWVRQMPGKGLEWMGIIYPGDSDTRYSPSFQGQVTISADKSISTAYLQWSSLKASDTAMYFCARQRTFYYDSSDYFDYWGQGTLVTVSS VL: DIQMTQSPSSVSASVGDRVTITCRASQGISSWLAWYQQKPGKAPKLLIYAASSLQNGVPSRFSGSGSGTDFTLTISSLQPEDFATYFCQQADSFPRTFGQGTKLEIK
0.2 fold

Values from patent US20260250381A1
